# Test system: Staphylococcus epidermidis
# assay-summary: Antibacterial activity against Staphylococcus epidermidis assessed as growth inhibition by microtitration method
# Assay type: functional
property: MIC (µg/mL)

Some solved cases for reference:
CCOC(=O)[C@H](C)NC(=O)c1cn(CC)c2cc(C(F)(F)F)ccc2c1=O : 6.25
CC(C)[C@H](NC(=O)c1cnc2cc(C(F)(F)F)ccc2c1O)C(=O)O : 25
CCOC(=O)[C@H](CC(C)C)NC(=O)c1cn(CC)c2cc(C(F)(F)F)ccc2c1=O : 25
O=C(O)c1cn(C2CC2)c2cc(N3CCNCC3)c(F)cc2c1=O : 0.012
O=C(N[C@@H](Cc1ccccc1)C(=O)O)c1cnc2cc(C(F)(F)F)ccc2c1O : 25
CCOC(=O)[C@@H]1CCCN1C(=O)c1cn(CC)c2cc(C(F)(F)F)ccc2c1=O : 25
CCn1cc(C(=O)N[C@@H](CC(C)C)C(=O)O)c(=O)c2ccc(C(F)(F)F)cc21 : 6.25
CCn1cc(C(=O)N[C@@H](C)C(=O)O)c(=O)c2ccc(C(F)(F)F)cc21 : 6.25
CCn1cc(C(=O)N[C@H](C(=O)O)C(C)C)c(=O)c2ccc(C(F)(F)F)cc21 : 6.25
CCn1cc(C(=O)N[C@H](C)C(=O)O)c(=O)c2ccc(C(F)(F)F)cc21 : 25

A = CC[C@@H](C)[C@H](NC(=O)c1cn(CC)c2cc(C(F)(F)F)ccc2c1=O)C(=O)O
B = C[C@H](NC(=O)c1cnc2cc(C(F)(F)F)ccc2c1O)C(=O)O
C = CCn1cc(C(=O)N[C@@H](Cc2ccccc2)C(=O)O)c(=O)c2ccc(C(F)(F)F)cc21
D = C[C@@H](NC(=O)c1cnc2cc(C(F)(F)F)ccc2c1O)C(=O)O
E = O=C(O)[C@@H]1CCCN1C(=O)c1cnc2cc(C(F)(F)F)ccc2c1O
Rank descending by MIC. Form entry: labels listed in requested order.
E, B, D, A, C
